- targetUnderTest: Human immunodeficiency virus type 1 protease (Human immunodeficiency virus 1, UniProt Q72874)
measuredParameter: pKi
When answering, recall that pKi equals minus log10 of the concentration in mol/L, and write that number alone.

Give recorded pKi. CC(C)c1cnc([C@H](Cc2ccccc2)C[C@H](O)[C@H](Cc2ccccc2)NC(=O)[C@@H](NC(=O)OCc2ccccc2)C(C)C)[nH]1
9.22

Give recorded pKi. CC(C)c1c[nH]c([C@H](Cc2ccccc2)C[C@H](O)[C@H](Cc2ccccc2)NC(=O)[C@@H](NC(=O)OCc2ccccc2)[C@H](C)O)n1
8.85

Give recorded pKi. CCCc1cnc([C@H](Cc2ccccc2)C[C@H](O)[C@H](Cc2ccccc2)NC(=O)OC(C)(C)C)s1 (stereo in doubt; form 2)
6.39

Give recorded pKi. CC(C)(C)OC(=O)N[C@@H](Cc1ccccc1)[C@@H](O)C[C@@H](Cc1ccccc1)c1nc(C(=O)C2CCCC2)c[nH]1
6.82

Give recorded pKi. CC(C)c1c[nH]c([C@H](Cc2ccccc2)C[C@H](O)[C@H](Cc2ccccc2)NC(=O)[C@@H](NC=O)C(C)C)n1
8.34

Give recorded pKi. CCOC(=O)N[C@H](C(=O)N[C@@H](Cc1ccccc1)[C@@H](O)C[C@@H](Cc1ccccc1)c1nc(C(C)C)c[nH]1)C(C)C
8.55

Give recorded pKi. CCC(CC)C(=O)c1cnc([C@H](Cc2ccccc2)C[C@H](O)[C@H](Cc2ccccc2)NC(=O)OC(C)(C)C)[nH]1
7.34

----------
Kindly state pKi for each of the entries shown.
When answering, recall that pKi equals minus log10 of the concentration in mol/L, and write that number alone.

Recall the reported pKi of COC(=O)N[C@H](C(=O)N[C@@H](Cc1ccccc1)[C@@H](O)C[C@@H](Cc1ccccc1)c1nc(C(C)C)c[nH]1)C(C)C on UniProtKB Q72874 and write it down.
8.68

Recall the reported pKi of CCCc1cnc([C@H](Cc2ccccc2)C[C@H](O)[C@H](Cc2ccccc2)NC(=O)OC(C)(C)C)s1 (stereo in doubt; form 3) on UniProtKB Q72874 and write it down.
5.34

Recall the reported pKi of CC(=O)N[C@@H](C(=O)N[C@@H](Cc1ccccc1)[C@@H](O)C[C@@H](Cc1ccccc1)c1nc(C(C)C)c[nH]1)C(C)C on UniProtKB Q72874 and write it down.
6.82

Recall the reported pKi of CNC(=O)c1c[nH]c([C@H](Cc2ccccc2)C[C@H](O)[C@H](Cc2ccccc2)NC(=O)OC(C)(C)C)n1 on UniProtKB Q72874 and write it down.
5.43

Recall the reported pKi of CC(C)(C)OC(=O)N[C@@H](Cc1ccccc1)[C@@H](O)C[C@@H](Cc1ccccc1)c1nccs1 on UniProtKB Q72874 and write it down.
5.52

Recall the reported pKi of CCCCc1cnc([C@H](Cc2ccccc2)C[C@H](O)[C@H](Cc2ccccc2)NC(=O)OC(C)(C)C)s1 on UniProtKB Q72874 and write it down.
4.59

Recall the reported pKi of CCc1cnc([C@H](Cc2ccccc2)C[C@H](O)[C@H](Cc2ccccc2)NC(=O)OC(C)(C)C)s1 on UniProtKB Q72874 and write it down.
5.70

----------
Kindly state log10 IC50 for each of the entries shown.
- Test system: MOLT-4
- procedureText: Compound was tested for in vitro inhibitory activity against HIV replication in MOLT-4 cells
- Type: functional, cell-based
- conditionsUsed: Homo sapiens
Use the decimal logarithm of IC50 (nM).

Give recorded log10 IC50. CCOC(=O)N[C@H](C(=O)N[C@@H](Cc1ccccc1)[C@@H](O)C[C@@H](Cc1ccccc1)c1nc(C(C)C)c[nH]1)C(C)C
1.89

Give recorded log10 IC50. CCC(CC)C(=O)c1cnc([C@H](Cc2ccccc2)C[C@H](O)[C@H](Cc2ccccc2)NC(=O)OC(C)(C)C)[nH]1
2.93

Give recorded log10 IC50. CC(C)c1cnc([C@H](Cc2ccccc2)C[C@H](O)[C@H](Cc2ccccc2)NC(=O)[C@@H](NC(=O)OCc2ccccc2)C(C)C)[nH]1
2.00

Give recorded log10 IC50. CCC(C)C(=O)c1c[nH]c([C@H](Cc2ccccc2)C[C@H](O)[C@H](Cc2ccccc2)NC(=O)OC(C)(C)C)n1 (stereo partly drawn)
2.98

Give recorded log10 IC50. COC(=O)N[C@H](C(=O)N[C@@H](Cc1ccccc1)[C@@H](O)C[C@@H](Cc1ccccc1)c1nc(C(C)C)c[nH]1)C(C)C
1.70

Give recorded log10 IC50. CC(=O)N[C@H](C(=O)N[C@@H](Cc1ccccc1)[C@@H](O)C[C@@H](Cc1ccccc1)c1ncc(C(C)C)[nH]1)C(C)C
1.60

Give recorded log10 IC50. CC(C)OC(=O)N[C@H](C(=O)N[C@@H](Cc1ccccc1)[C@@H](O)C[C@@H](Cc1ccccc1)c1ncc(C(C)C)[nH]1)C(C)C
2.13

Give recorded log10 IC50. CC(C)c1c[nH]c([C@H](Cc2ccccc2)C[C@H](O)[C@H](Cc2ccccc2)NC(=O)[C@@H](NC(=O)OCc2ccccc2)[C@H](C)O)n1
1.04

----------
Quick record of Ki values for UniProtKB Q72874.
Your answer is read as nM, so omit the unit and give the number.

Give recorded Ki. CC(C)OC(=O)N[C@H](C(=O)N[C@@H](Cc1ccccc1)[C@@H](O)C[C@@H](Cc1ccccc1)c1ncc(C(C)C)[nH]1)C(C)C
7.9

Give recorded Ki. CCC(=O)c1cnc([C@H](Cc2ccccc2)C[C@H](O)[C@H](Cc2ccccc2)NC(=O)OC(C)(C)C)s1
3700

Give recorded Ki. CC(C)c1cnc([C@H](Cc2ccccc2)C[C@H](O)[C@H](Cc2ccccc2)NC(=O)[C@@H](NC(=O)OC(C)(C)C)C(C)C)[nH]1
300

Give recorded Ki. CCC(C)C(=O)c1c[nH]c([C@H](Cc2ccccc2)C[C@H](O)[C@H](Cc2ccccc2)NC(=O)OC(C)(C)C)n1 (stereo not given in full)
53

Give recorded Ki. CC(C)(C)OC(=O)N[C@@H](Cc1ccccc1)[C@@H](O)C[C@@H](Cc1ccccc1)c1ncc(C(=O)c2ccccc2)[nH]1
7800

Give recorded Ki. CC(C)(C)OC(=O)N[C@@H](Cc1ccccc1)[C@@H](O)C[C@@H](Cc1ccccc1)c1nc[nH]n1
5800

Give recorded Ki. COC(=O)c1cnc([C@H](Cc2ccccc2)C[C@H](O)[C@H](Cc2ccccc2)NC(=O)OC(C)(C)C)[nH]1
1800

Give recorded Ki. CC(=O)N[C@H](C(=O)N[C@@H](Cc1ccccc1)[C@@H](O)C[C@@H](Cc1ccccc1)c1ncc(C(C)C)[nH]1)C(C)C
1

Give recorded Ki. CCC(O)c1cnc([C@H](Cc2ccccc2)C[C@H](O)[C@H](Cc2ccccc2)NC(=O)OC(C)(C)C)s1 (stereo not given in full)
720

Give recorded Ki. CCCc1cnc([C@H](Cc2ccccc2)C[C@H](O)[C@H](Cc2ccccc2)NC(=O)OC(C)(C)C)s1 (stereo in doubt; form 1)
700
